Test system: Hep-2 cells
Test: Toxicity studies (XTT), Hep-2 cells
Format: cell-based
Design: unit not given beside the values
Conditions: Table 2, Examples 75 to 82 and 125 to 184, 6d, in µM
ENDPOINT NAME: TC50 (6d)

MOLECULE	EXPERIMENTAL VALUE
O=C(Nc1c(F)cccc1F)NC1N=C(c2ccccc2)c2ccccc2NC1=O (stereo not shown) [Example 127]	>50
COc1ccc(OC)c(C(=O)NC2N=C(c3ccccc3)c3ccccc3NC2=O)c1 (stereo not shown) [Example 126]	>50
CCOc1ccc(C(C)=O)cc1C(=O)N[C@H]1N=C(c2ccccc2)c2ccccc2NC1=O [Example 76b]	>50
COc1cc(N)c(Cl)cc1C(=O)NC1N=C(c2ccccc2)c2ccccc2NC1=O (stereo not shown) [Example 140]	68
